Each record here notes measured CC50 at 3 days.
assay: in vitro; type: cell-based; conditions: human, HepG2 or HepG2.117 cells, ATPlite, 3-days incubation (not marked with *), mean value

Sample COc1cc(C(=O)NC2CC2)ccc1-n1c(NC(C)C)nc2c(c1=O)C[C@@H](C)N(C(=O)c1ccc(Cl)c(C(F)(F)F)c1)C2 (single isomer, unassigned) [Compound C678a] ; CC50 at 3 days observed: 43 µM

Sample CC(C)Nc1nc2c(c(=O)n1-c1ccc(C(=O)NC3CC3)cc1)C[C@@H](C)N(C(=O)c1ccc(Cl)c(C(F)(F)F)c1)C2 ; CC50 at 3 days observed: > 50 µM

Sample CNC(=O)c1ccc(-n2c(NCC(n3cncn3)C(F)(F)F)nc3c(c2=O)C[C@@H](C)N(C(=O)c2ccc(Cl)c(Cl)c2)C3)cc1 (stereo partly drawn) ; CC50 at 3 days observed: > 50 µM
